experiment: Lipophilicity, log P of the compound; assay type: physicochemical; details: octanol/water
Reported metric: logP
Please give the numeric answer without any surrounding text.

C=C1[C@@H](OC(=O)C(C)C)[C@@H](OC(C)=O)C(=O)C(C)(C)/C=C/[C@H](C)[C@H](OC(=O)c2ccccc2)[C@@]2(O)C[C@H](C)[C@H](OC(C)=O)[C@@H]2[C@H]1OC(C)=O
4
CC(=O)O[C@H]1[C@@H](COC(=O)c2ccccc2)C[C@]2(OC(=O)/C=C/c3ccccc3)C(=O)/C(C)=C/[C@@H]3[C@H](CC[C@@]4(C)O[C@@H]4[C@@H]12)C3(C)C
7.9
C/C1=C\[C@@H]2[C@H](CC[C@@]3(C)O[C@@H]3[C@H]3[C@@H](O)[C@@H](COC(=O)c4ccccc4)C[C@]3(OC(=O)/C=C/c3ccccc3)C1=O)C2(C)C
7.2
C=C1[C@@H](OC(=O)C(C)CC)[C@@H](OC(C)=O)C(=O)C(C)(C)/C=C/[C@H](C)[C@H](OC(=O)c2ccccc2)[C@@]2(O)C[C@H](C)[C@H](OC(C)=O)[C@@H]2[C@H]1OC(C)=O (stereo not given in full)
4.5
CCCC(=O)OC[C@H]1C[C@]2(OC(=O)/C=C/c3ccccc3)C(=O)/C(C)=C/[C@@H]3[C@H](CC[C@@]4(C)O[C@@H]4[C@H]2[C@H]1OC(=O)CCC)C3(C)C
8

Query string: Please look up its logP: CC(=O)OC[C@H]1C[C@]2(OC(=O)/C=C/c3ccccc3)C(=O)/C(C)=C/[C@@H]3[C@H](CC[C@@]4(C)O[C@@H]4[C@H]2[C@H]1O)C3(C)C
Result string: 5.5

Query string: Please look up its logP: CC(=O)OC[C@H]1C[C@]2(OC(=O)/C=C/c3ccccc3)C(=O)/C(C)=C/[C@@H]3[C@H](CC[C@@]4(C)O[C@@H]4[C@H]2[C@H]1OC(C)=O)C3(C)C
Result string: 6.2

====

test: Lipophilicity, log P of the compound; assay type: physicochemical; details: octanol/water
Reported metric: logP
Please give the numeric answer without any surrounding text.

// below: answered molecules
C/C1=C\[C@@H]2[C@H](CC[C@@]3(C)O[C@@H]3[C@H]3[C@@H](O)[C@@H](CO)C[C@]3(OC(=O)/C=C/c3ccccc3)C1=O)C2(C)C
4.8
CCC(=O)OC[C@H]1C[C@]2(OC(=O)/C=C/c3ccccc3)C(=O)/C(C)=C/[C@@H]3[C@H](CC[C@@]4(C)O[C@@H]4[C@H]2[C@H]1OC(=O)CC)C3(C)C
6.9

// switching to the query molecule
Query string: Please look up its logP: C/C1=C\[C@@H]2[C@H](CC[C@@]3(C)O[C@@H]3[C@H]3[C@@H](O)[C@@H](C)C[C@]3(OC(=O)c3ccccc3)C1=O)C2(C)C
Result string: 5.3

All values here come from ChEMBL document CHEMBL1142477.
